- System: Saccharomyces cerevisiae
- PROTOCOL NOTES: protein stability index of tFT-peptide fusion (C-terminal peptide) (PSI (0-1 scale)); higher = more stable (slower turnover)
- MEASUREMENT CONDITIONS: genetic background: wild type; temperature: 37 C
Classify on protein stability index using low group = under 0.4, middle group = from 0.4 up to 0.5, high group = 0.5 and over

>>> discrete_label("CVISLVTAVRLF")
"high group"
>>> discrete_label("LPLLLFYLPIIW")
"middle group"
>>> discrete_label("CLCFFLICFILF")
"low group"
>>> discrete_label("FGFFLFIFFFFR")
"low group"

Problem: Band for the recorded protein stability index of WFSRCVSLGLCW ?
Solution: low group

Problem: Hi there! Could you help me figure out the category for WLCLAVLVRFPC please?
Solution: low group

----------
- Tested on: Saccharomyces cerevisiae
- PROTOCOL NOTES: protein stability index of tFT-peptide fusion (C-terminal peptide) (PSI (0-1 scale)); higher = more stable (slower turnover)
- MEASUREMENT CONDITIONS: genetic background: das1 deletion; temperature: 30 C
MEASURE NAME: protein stability index
Just the number.

Field: example entries. Status: answers known.
>>> quantitative_result("AVASFFLRNKRR [FIS1 C-terminal 12 aa]")
0.707
>>> quantitative_result("LPFSVEPTTSRM [YFR036W-A C-terminal 12 aa]")
0.7
>>> quantitative_result("KKLEGTIEYQKL [RPT4 C-terminal 12 aa]")
0.708

The value of protein stability index measured for the sequence ENVLFYIGRVNK [COB C-terminal 12 aa] turned out to be 0.726

So for NVIIQDKTKKTQ [MCD4 C-terminal 12 aa] , the logged protein stability index turned out to be 0.733

Form: sequence = SCGCGSSFDIEN [ISA2 C-terminal 12 aa] ; protein stability index = 0.704

Just so you know, measured protein stability index for ERTSLLSGETQT [YPQ2 C-terminal 12 aa] came out at 0.677

Noted for IDLVLVVNVLSL [YCR064C C-terminal 12 aa] : its protein stability index reads 0.425

----------
- Test system: Saccharomyces cerevisiae
- PROTOCOL NOTES: protein stability index of tFT-peptide fusion (C-terminal peptide) (PSI (0-1 scale)); higher = more stable (slower turnover)
- MEASUREMENT CONDITIONS: genetic background: wild type; temperature: 30 C
Listed here are sequences together with their documented protein stability index.
Kindly provide the number alone.

# count of solved cases: 4
>>> quantitative_result("IGVSDSGMWMGN")
0.694
>>> quantitative_result("GSSDTYLLSLVD")
0.733
>>> quantitative_result("NEINKPTRSQTA")
0.644
>>> quantitative_result("LSYRYPLYPILL")
0.647

QPPPPRLPPRPP yielded protein stability index of 0.622

// sample GKNKRERNRSSG , its protein stability index was 0.771

// protein stability index value for HLPPPPSPPPPP : 0.68

----------
- Test system: Saccharomyces cerevisiae
- PROTOCOL NOTES: protein stability index of tFT-peptide fusion (C-terminal peptide) (PSI (0-1 scale)); higher = more stable (slower turnover)
- MEASUREMENT CONDITIONS: genetic background: wild type; temperature: 30 C
MEASURE NAME: protein stability index
The answer should be a number; do not append a unit.

Solved entries (count: 8):
>>> quantitative_result("TVGLSLGRGSGD")
0.67
>>> quantitative_result("VESSSMKGLLCD")
0.66
>>> quantitative_result("HVTGFVQRYLCH")
0.711
>>> quantitative_result("PPPSPLPSPPPS")
0.746
>>> quantitative_result("LGFPSFFPNVSV")
0.695
>>> quantitative_result("PPPFPPPPLFPL")
0.714
>>> quantitative_result("LSCFCLFCLSFC")
0.0626
>>> quantitative_result("TLALQFPFKLLF")
0.653

Next:
Kindly note: Saccharomyces cerevisiae, FLCNSRSICGDG , protein stability index value reported: 0.677
